Source of measurements: the SangsterLogP compilation

Output t for records whose logP is lower than 2, f for records at or above 2.

Query block: Is logP strictly under 2 for the entry O=C1C(O)N=C(c2ccccc2)c2cc(Cl)ccc2N1CCO (stereo unspecified) ?
Result block: t

Query block: Is logP strictly under 2 for the entry CCN(CC)CCN1C(=O)C(O)N=C(c2ccccc2F)c2cc(Cl)ccc21 (stereo unspecified) ?
Result block: t

Query block: Is logP strictly under 2 for the entry O=C(O)CCC(=O)OC1N=C(c2ccccc2)c2cc(Cl)ccc2NC1=O (stereo unspecified) ?
Result block: t

Query block: Is logP strictly under 2 for the entry O=C1C(O)N=C(c2ccccc2F)c2cc(Cl)ccc2N1CCO (stereo unspecified) ?
Result block: t

Query block: Is logP strictly under 2 for the entry CCN(CC)CCN1C(=O)C(O)N=C(c2ccccc2Cl)c2cc(Cl)ccc21 (stereo unspecified) ?
Result block: t

Query block: Is logP strictly under 2 for the entry CC(=O)OCCN1C(=O)C(OC(C)=O)N=C(c2ccccc2)c2cc(Cl)ccc21 (stereo unspecified) ?
Result block: f
